Tested on: HepG2
assay details: Cytotoxicity against human HepG2 cells after 48 hrs by MTT assay
Format: functional, cell-based
measurement conditions: HepG2, 48 h
Recorded measurements of IC50, one per entry

{"compound": "CCOP(=O)(OCC)C(NC(=S)NC(=O)[C@]1(C)CCC[C@]2(C)c3ccc(C(C)C)cc3CC[C@@H]12)c1ccc(C)cc1 (some centres undefined)", "IC50 / µM": 30}
{"compound": "CCOP(=O)(OCC)C(NC(=S)NC(=O)[C@]1(C)CCC[C@]2(C)c3ccc(C(C)C)cc3CC[C@@H]12)c1cccc(F)c1 (some centres undefined)", "IC50 / µM": 31.6}
{"compound": "CCOP(=O)(OCC)C(NC(=S)NC(=O)[C@]1(C)CCC[C@]2(C)c3ccc(C(C)C)cc3CC[C@@H]12)c1cccc(Br)c1 (some centres undefined)", "IC50 / µM": 15.2}
{"compound": "O=c1[nH]cc(F)c(=O)[nH]1 [FLUOROURACIL]", "IC50 / µM": 30}

====

Test system: HepG2
assay details: Cytotoxicity against human HepG2 cells after 48 hrs by MTT assay
Format: functional, cell-based
measurement conditions: HepG2, 48 h
Listed here: items and their measured IC50.

{"compound": "CCOP(=O)(OCC)C(NC(=S)NC(=O)[C@]1(C)CCC[C@]2(C)c3ccc(C(C)C)cc3CC[C@@H]12)c1cccc2ccccc12 (some centres not stated)", "value qualifier": ">", "IC50 (µM)": 50}
{"compound": "CCOP(=O)(OCC)C(NC(=S)NC(=O)[C@]1(C)CCC[C@]2(C)c3ccc(C(C)C)cc3CC[C@@H]12)c1ccc(Cl)cc1 (some centres not stated)", "value qualifier": "=", "IC50 (µM)": 26.5}
{"compound": "CCOP(=O)(OCC)C(NC(=S)NC(=O)[C@]1(C)CCC[C@]2(C)c3ccc(C(C)C)cc3CC[C@@H]12)c1ccccc1F (some centres not stated)", "value qualifier": "=", "IC50 (µM)": 11.4}
{"compound": "CCOP(=O)(OCC)C(NC(=S)NC(=O)[C@]1(C)CCC[C@]2(C)c3ccc(C(C)C)cc3CC[C@@H]12)c1ccccc1 (some centres not stated)", "value qualifier": "=", "IC50 (µM)": 15.2}
{"compound": "CCOP(=O)(OCC)C(NC(=S)NC(=O)[C@]1(C)CCC[C@]2(C)c3ccc(C(C)C)cc3CC[C@@H]12)c1cccc(C)c1 (some centres not stated)", "value qualifier": "=", "IC50 (µM)": 37.3}
{"compound": "CCOP(=O)(OCC)C(NC(=S)NC(=O)[C@]1(C)CCC[C@]2(C)c3ccc(C(C)C)cc3CC[C@@H]12)c1cccc(OC)c1 (some centres not stated)", "value qualifier": "=", "IC50 (µM)": 18}
{"compound": "CCOP(=O)(OCC)C(NC(=S)NC(=O)[C@]1(C)CCC[C@]2(C)c3ccc(C(C)C)cc3CC[C@@H]12)c1ccc(Br)cc1 (some centres not stated)", "value qualifier": "=", "IC50 (µM)": 24}

====

Test system: HepG2
assay details: Cytotoxicity against human HepG2 cells after 48 hrs by MTT assay
Type: functional, cell-based
measurement conditions: HepG2, 48 h
pIC50: −log10 of the molar value.
Measured pIC50 accompanies every entry in the list below.

{"molecule": "CCOP(=O)(OCC)C(NC(=S)NC(=O)[C@]1(C)CCC[C@]2(C)c3ccc(C(C)C)cc3CC[C@@H]12)c1ccccc1Br (some centres not stated)", "value qualifier": "=", "pIC50": 4.57}
{"molecule": "CCOP(=O)(OCC)C(NC(=S)NC(=O)[C@]1(C)CCC[C@]2(C)c3ccc(C(C)C)cc3CC[C@@H]12)c1cccc(Cl)c1 (some centres not stated)", "value qualifier": "<", "pIC50": 4.30}
{"molecule": "CCOP(=O)(OCC)C(NC(=S)NC(=O)[C@]1(C)CCC[C@]2(C)c3ccc(C(C)C)cc3CC[C@@H]12)c1ccc(F)cc1 (some centres not stated)", "value qualifier": "=", "pIC50": 4.99}
{"molecule": "CCOP(=O)(OCC)C(NC(=S)NC(=O)[C@]1(C)CCC[C@]2(C)c3ccc(C(C)C)cc3CC[C@@H]12)c1ccc2ccccc2c1 (some centres not stated)", "value qualifier": "<", "pIC50": 4.30}
{"molecule": "CCOP(=O)(OCC)C(NC(=S)NC(=O)[C@]1(C)CCC[C@]2(C)c3ccc(C(C)C)cc3CC[C@@H]12)c1ccccc1Cl (some centres not stated)", "value qualifier": "=", "pIC50": 4.60}
{"molecule": "CCOP(=O)(OCC)C(NC(=S)NC(=O)[C@]1(C)CCC[C@]2(C)c3ccc(C(C)C)cc3CC[C@@H]12)c1ccc(OC)cc1 (some centres not stated)", "value qualifier": "=", "pIC50": 4.49}
{"molecule": "CCOP(=O)(OCC)C(NC(=S)NC(=O)[C@]1(C)CCC[C@]2(C)c3ccc(C(C)C)cc3CC[C@@H]12)c1ccccc1OC (some centres not stated)", "value qualifier": "=", "pIC50": 5.11}
